List of IC50 tested on SARS-CoV 3CLpro (Severe acute respiratory syndrome coronavirus, UniProt P0C6X7).
assay metric: IC50 (nM)

chem_smiles=CC[C@H](C)[C@H](NC(=O)C(F)(F)F)C(=O)N1C[C@H]2[C@@H]([C@H]1C(=O)NN(C[C@@H]1CCNC1=O)C(=O)[C@H](F)Cl)C2(C)C assay_metric=IC50 observed_result=11
chem_smiles=CCC(CC)[C@H](NC(=O)C1(F)CC1)C(=O)N1CC(C)(C)C[C@H]1C(=O)NN(C[C@@H]1CCNC1=O)C(=O)[C@H](F)Cl assay_metric=IC50 observed_result=25
chem_smiles=CC[C@H](C)[C@H](NC(=O)[C@@H](F)Cl)C(=O)N1C[C@H]2[C@@H]([C@H]1C(=O)NN(C[C@H]1CCCNC1=O)C(=O)[C@@H](F)Cl)C2(C)C assay_metric=IC50 observed_result=51
chem_smiles=CC(C)(C)[C@H](NC(=O)C(F)(F)F)C(=O)N1C[C@@H]2CCC[C@@H]2[C@H]1C(=O)NN(C[C@@H]1CCNC1=O)C(=O)[C@@H](F)Cl assay_metric=IC50 observed_result=16
chem_smiles=CCC(CC)[C@H](NC(=O)C1CC(F)(F)C1)C(=O)N1C[C@H]2[C@@H]([C@H]1C(=O)NN(C[C@@H]1CCNC1=O)C(=O)[C@H](F)Cl)C2(C)C assay_metric=IC50 observed_result=19
